// values below are reported Viability of Cells (% of Control)
Test system: MCF-7 breast cancer cells
assayNotes: Cell viability (MTT) assay, MCF-7
Type: cell-based
condition: 50 µM
quantityMeasured: Viability of Cells (% of Control)

>>> result("C[C@H](CC(=O)C[C@@H](C)[C@H]1C[C@H](O)[C@@]2(C)C3=C(C(=O)C[C@]12C)[C@@]1(C)CCC(=O)C(C)(C)[C@@H]1C[C@@H]3O)C(=O)Nc1ccc(Cl)cc1")
"120.7 ± 2.0 % of Control"
>>> result("Cc1ccc(NC(=O)[C@H](C)CC(=O)C[C@@H](C)[C@H]2C[C@H](O)[C@@]3(C)C4=C(C(=O)C[C@]23C)[C@@]2(C)CCC(=O)C(C)(C)[C@@H]2C[C@@H]4O)cc1")
"114.3 ± 1.2 % of Control"
>>> result("C[C@H](CC(=O)C[C@@H](C)[C@H]1C[C@H](O)[C@@]2(C)C3=C(C(=O)C[C@]12C)[C@@]1(C)CCC(=O)C(C)(C)[C@@H]1C[C@@H]3O)C(=O)NC1Cc2ccccc2C1")
"53.3 ± 6.9 % of Control"
>>> result("C[C@H](CC(=O)C[C@@H](C)[C@H]1C[C@H](O)[C@@]2(C)C3=C(C(=O)C[C@]12C)[C@@]1(C)CCC(=O)C(C)(C)[C@@H]1C[C@@H]3O)C(=O)NCCc1ccc(Cl)cc1")
"110.5 ± 6.0 % of Control"
>>> result("C[C@H](CC(=O)C[C@@H](C)[C@H]1C[C@H](O)[C@@]2(C)C3=C(C(=O)C[C@]12C)[C@@]1(C)CCC(=O)C(C)(C)[C@@H]1C[C@@H]3O)C(=O)N1CCN(c2ccccc2)CC1")
"70.4 ± 1.5 % of Control"
>>> result("C[C@H](CC(=O)C[C@@H](C)[C@H]1C[C@H](O)[C@@]2(C)C3=C(C(=O)C[C@]12C)[C@@]1(C)CCC(=O)C(C)(C)[C@@H]1C[C@@H]3O)C(=O)NCCc1ccc(F)cc1")
"101.8 ± 0.2 % of Control"
>>> result("CCN1CCN(C(=O)[C@H](C)CC(=O)C[C@@H](C)[C@H]2C[C@H](O)[C@@]3(C)C4=C(C(=O)C[C@]23C)[C@@]2(C)CCC(=O)C(C)(C)[C@@H]2C[C@@H]4O)CC1")
"102.2 ± 5.9 % of Control"
>>> result("Cc1ccc(CNC(=O)[C@H](C)CC(=O)C[C@@H](C)[C@H]2C[C@H](O)[C@@]3(C)C4=C(C(=O)C[C@]23C)[C@@]2(C)CCC(=O)C(C)(C)[C@@H]2C[C@@H]4O)cc1")
"107.4 ± 6.7 % of Control"

* * *

Tested on: MCF-7 breast cancer cells
assayNotes: Cell viability (MTT) assay, MCF-7
Assay type: cell-based
condition: 25 µM
quantityMeasured: Viability of Cells (% of Control)

>>> result("C[C@H](CC(=O)C[C@@H](C)[C@H]1C[C@H](O)[C@@]2(C)C3=C(C(=O)C[C@]12C)[C@@]1(C)CCC(=O)C(C)(C)[C@@H]1C[C@@H]3O)C(=O)NCc1cc(Cl)cc(Cl)c1")
"63.3 ± 8.3 % of Control"
>>> result("C[C@H](CC(=O)C[C@@H](C)[C@H]1C[C@H](O)[C@@]2(C)C3=C(C(=O)C[C@]12C)[C@@]1(C)CCC(=O)C(C)(C)[C@@H]1C[C@@H]3O)C(=O)N1CCN(c2ccccc2)CC1")
"74.3 ± 5.2 % of Control"
>>> result("C[C@H](CC(=O)C[C@@H](C)[C@H]1C[C@H](O)[C@@]2(C)C3=C(C(=O)C[C@]12C)[C@@]1(C)CCC(=O)C(C)(C)[C@@H]1C[C@@H]3O)C(=O)Nc1ccc(Cl)cc1")
"116.4 ± 4.8 % of Control"
>>> result("Cc1ccc(NC(=O)[C@H](C)CC(=O)C[C@@H](C)[C@H]2C[C@H](O)[C@@]3(C)C4=C(C(=O)C[C@]23C)[C@@]2(C)CCC(=O)C(C)(C)[C@@H]2C[C@@H]4O)cc1")
"110.9 ± 2.2 % of Control"
>>> result("C[C@H](CC(=O)C[C@@H](C)[C@H]1C[C@H](O)[C@@]2(C)C3=C(C(=O)C[C@]12C)[C@@]1(C)CCC(=O)C(C)(C)[C@@H]1C[C@@H]3O)C(=O)NCc1ccc(F)cc1")
"77.1 ± 4.2 % of Control"
>>> result("C[C@H](CC(=O)C[C@@H](C)[C@H]1C[C@H](O)[C@@]2(C)C3=C(C(=O)C[C@]12C)[C@@]1(C)CCC(=O)C(C)(C)[C@@H]1C[C@@H]3O)C(=O)NCCc1ccc(Cl)cc1")
"119.0 ± 3.4 % of Control"
>>> result("C[C@H](CC(=O)C[C@@H](C)[C@H]1C[C@H](O)[C@@]2(C)C3=C(C(=O)C[C@]12C)[C@@]1(C)CCC(=O)C(C)(C)[C@@H]1C[C@@H]3O)C(=O)N1CCN(C)CC1")
"113.6 ± 2.1 % of Control"
>>> result("C[C@H](CC(=O)C[C@@H](C)[C@H]1C[C@H](O)[C@@]2(C)C3=C(C(=O)C[C@]12C)[C@@]1(C)CCC(=O)C(C)(C)[C@@H]1C[C@@H]3O)C(=O)NCCc1ccc(F)cc1")
"100.5 ± 2.5 % of Control"
>>> result("Cc1ccc(CNC(=O)[C@H](C)CC(=O)C[C@@H](C)[C@H]2C[C@H](O)[C@@]3(C)C4=C(C(=O)C[C@]23C)[C@@]2(C)CCC(=O)C(C)(C)[C@@H]2C[C@@H]4O)cc1")
"115.0 ± 2.9 % of Control"
>>> result("CCCCNC(=O)[C@H](C)CC(=O)C[C@@H](C)[C@H]1C[C@H](O)[C@@]2(C)C3=C(C(=O)C[C@]12C)[C@@]1(C)CCC(=O)C(C)(C)[C@@H]1C[C@@H]3O")
"96.6 ± 6.2 % of Control"

* * *

// values below are reported Viability of Cells (% of Control)
System: HepG2 cells
assayNotes: Cell viability (MTT) assay, HepG2
Format: cell-based
condition: 25 µM
Description: To investigate the selectivity of these derivatives towards different tumor cell lines, we also selected HepG2 and osteosarcoma cell line SJSA-1 cells to evaluate the anti-proliferation activity of the derivatives. […] Cell viability was determined by MTT assay. […] After complete dissolution of the crystal, the absorbance was measured at 540 nm and expressed as the average percentage of absorbance between treated and control cells. […]
quantityMeasured: Viability of Cells (% of Control)

>>> result("CCCCNC(=O)[C@H](C)CC(=O)C[C@@H](C)[C@H]1C[C@H](O)[C@@]2(C)C3=C(C(=O)C[C@]12C)[C@@]1(C)CCC(=O)C(C)(C)[C@@H]1C[C@@H]3O")
"90.5 ± 1.1 % of Control"
>>> result("C[C@H](CC(=O)C[C@@H](C)[C@H]1C[C@H](O)[C@@]2(C)C3=C(C(=O)C[C@]12C)[C@@]1(C)CCC(=O)C(C)(C)[C@@H]1C[C@@H]3O)C(=O)NC1Cc2ccccc2C1")
"64.2 ± 1.4 % of Control"
>>> result("Cc1ccc(NC(=O)[C@H](C)CC(=O)C[C@@H](C)[C@H]2C[C@H](O)[C@@]3(C)C4=C(C(=O)C[C@]23C)[C@@]2(C)CCC(=O)C(C)(C)[C@@H]2C[C@@H]4O)cc1")
"90.1 ± 1.1 % of Control"
>>> result("Cc1ccc(CNC(=O)[C@H](C)CC(=O)C[C@@H](C)[C@H]2C[C@H](O)[C@@]3(C)C4=C(C(=O)C[C@]23C)[C@@]2(C)CCC(=O)C(C)(C)[C@@H]2C[C@@H]4O)cc1")
"78.5 ± 3.0 % of Control"

* * *

Test system: MCF-7 breast cancer cells
assayNotes: Cell viability (MTT) assay, MCF-7
Assay type: cell-based
condition: 25 µM
quantityMeasured: Viability of Cells (% of Control)

>>> result("C[C@H](CC(=O)C[C@@H](C)[C@H]1C[C@H](O)[C@@]2(C)C3=C(C(=O)C[C@]12C)[C@@]1(C)CCC(=O)C(C)(C)[C@@H]1C[C@@H]3O)C(=O)NC1Cc2ccccc2C1")
"87.5 ± 7.6 % of Control"
>>> result("Cc1ccc(CCNC(=O)[C@H](C)CC(=O)C[C@@H](C)[C@H]2C[C@H](O)[C@@]3(C)C4=C(C(=O)C[C@]23C)[C@@]2(C)CCC(=O)C(C)(C)[C@@H]2C[C@@H]4O)cc1")
"120.8 ± 4.8 % of Control"
>>> result("CCN1CCN(C(=O)[C@H](C)CC(=O)C[C@@H](C)[C@H]2C[C@H](O)[C@@]3(C)C4=C(C(=O)C[C@]23C)[C@@]2(C)CCC(=O)C(C)(C)[C@@H]2C[C@@H]4O)CC1")
"106.2 ± 4.7 % of Control"
>>> result("C[C@H](CC(=O)C[C@@H](C)[C@H]1C[C@H](O)[C@@]2(C)C3=C(C(=O)C[C@]12C)[C@@]1(C)CCC(=O)C(C)(C)[C@@H]1C[C@@H]3O)C(=O)NCc1ccc(Cl)cc1")
"73.5 ± 4.0 % of Control"
